The origin of these recorded values is ChEMBL document CHEMBL2163205.

assay: Oral bioavailability in Alderley Park Han Wistar rat at 2.0 mg/kg administered as single dose; assay type: ADME, organism-based; details: in vivo
quantity: bioavailability (%)

N#CC1(NC(=O)[C@@H]2CCCC[C@H]2C(=O)N2CCc3[nH]c4ccc(F)cc4c3C2)CC1 :: 3.8
COc1cccc2c3c([nH]c12)CCN(C(=O)[C@@H]1CCCC[C@H]1C(=O)NC1(C#N)CC1)C3 :: 28
N#CC1(NC(=O)[C@@H]2CCCC[C@H]2C(=O)N2CCc3[nH]c4ccccc4c3C2)CC1 :: 8.2

P. N#CC1(NC(=O)[C@@H]2CCCC[C@H]2C(=O)N2CCc3[nH]c4ncccc4c3C2)CC1
Q. N#CC1(NC(=O)[C@@H]2CCCC[C@H]2C(=O)N2CCc3oc4ccccc4c3C2)CC1
**Q:** Look at P and Q . Which one has the lower recorded bioavailability number? Answer by stating the label of the chosen item.
**A:** Q

* * *

assay: Fraction unbound in human serum; format: ADME, cell-free
quantity: fraction unbound

COc1cccc2c3c([nH]c12)CCN(C(=O)[C@@H]1CCCC[C@H]1C(=O)NC1(C#N)CC1)C3 :: 0.17

I. N#CC1(NC(=O)[C@@H]2CCCC[C@H]2C(=O)N2CCc3[nH]c4ccc(F)cc4c3C2)CC1
II. N#CC1(NC(=O)[C@@H]2CCCC[C@H]2C(=O)N2CCc3[nH]c4ncccc4c3C2)CC1
**Q:** Please state the entry with greater fraction unbound among I and II . State the label of the item chosen.
**A:** II

* * *

assay: Intrinsic clearance in human liver microsomes assessed as metabolic turnover
quantity: microsomal CLint (µL/min/mg)

The examples below pair each entry with its known result.
CC(C)(C)[C@@H](C#N)NC(=O)[C@@H]1CCCC[C@H]1C(=O)N1CCc2[nH]c3ccc(F)cc3c2C1 :: 99
N#CCNC(=O)[C@@H]1CCCC[C@H]1C(=O)N1CC=CCC1 :: 4.5

a. Cc1cccc2c3c([nH]c12)CCN(C(=O)[C@@H]1CCCC[C@H]1C(=O)NC1(C#N)CC1)C3
b. N#CC1(NC(=O)[C@@H]2CCCC[C@H]2C(=O)N2CCc3[nH]c4cccc(F)c4c3C2)CC1
**Q:** Among a and b , whose measured microsomal CLint is the smaller figure? I would appreciate it if you answered with the label of your choice.
**A:** a
(a: 25 µL/min/mg, b: 57 µL/min/mg)

* * *

target: Procathepsin L (Homo sapiens, UniProt P07711); assay: Inhibition of human recombinant CatL assessed as suppression of enzyme-mediated Z-Phe-Arg-AMC cleavage by QFRET assay; settings: read-out: IC50
Sequence (P07711 whole entry): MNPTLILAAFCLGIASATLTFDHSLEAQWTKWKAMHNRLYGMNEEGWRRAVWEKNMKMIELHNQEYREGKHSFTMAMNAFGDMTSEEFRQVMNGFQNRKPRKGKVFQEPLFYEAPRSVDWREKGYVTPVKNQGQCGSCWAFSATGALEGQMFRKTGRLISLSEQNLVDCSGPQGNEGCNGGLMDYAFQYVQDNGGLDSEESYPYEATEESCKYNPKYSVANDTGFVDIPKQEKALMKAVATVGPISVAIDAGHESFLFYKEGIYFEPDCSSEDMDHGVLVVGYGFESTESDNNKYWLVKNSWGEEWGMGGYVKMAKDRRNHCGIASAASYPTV
quantity: IC50

**Q:** For C[C@@H](C#N)NC(=O)[C@@H]1CCCC[C@H]1C(=O)N1CCc2[nH]c3ccc(F)cc3c2C1 , what is its reported IC50?
**A:** > 40 µM

**Q:** Same question for CN(C)C(=O)[C@@H]1CCCC[C@H]1C(=O)NCC#N please.
**A:** > 40 µM

**Q:** Same again, this time with CC(C)(C)[C@@H](C#N)NC(=O)[C@@H]1CCCC[C@H]1C(=O)N1CCc2[nH]c3ccc(F)cc3c2C1
**A:** > 100 µM

**Q:** Lookup N#CC1(NC(=O)[C@@H]2CCCC[C@H]2C(=O)N2CCc3[nH]c4ccc(F)cc4c3C2)CC1
**A:** > 40 µM

**Q:** Now consider N#CCNC(=O)[C@@H]1CCCC[C@H]1C(=O)N1CCc2ccccc2C1 and answer again.
**A:** 3.11 µM

**Q:** Also, C[C@H](C#N)NC(=O)[C@@H]1CCCC[C@H]1C(=O)N1CCc2[nH]c3ccc(F)cc3c2C1 please.
**A:** > 100 µM
